Assay: Plasma pharmacokinetics, Parkinson's disease patients, once daily for 14 days
Assay type: in vivo, human
Conditions: human, oral, 18 mg, Day 14, plasma, PD patients
attribute.measured: Cmax
// return the numeric value with its unit appended

## Input For the compound shown here, Cc1ccc(C(=O)NNC(=O)c2c(C)cccc2Cl)cc1C#Cc1cnc2ccccc2c1 , give the reported Cmax.
## Output 309 ng/mL

---

Experiment: Plasma pharmacokinetics, 7 once-daily oral doses, healthy volunteers
Assay type: in vivo, human
Details: male, human, plasma, oral, 192 mg, Day 7, plasma, healthy volunteers; read-out: Cmax AM
attribute.measured: Cmax

## Input Please give the measured Cmax for this molecule: Cc1ccc(C(=O)NNC(=O)c2c(C)cccc2Cl)cc1C#Cc1cnc2ccccc2c1
## Output 5380 ng/mL

---

Test: Plasma pharmacokinetics, 7 once-daily oral doses, healthy volunteers
Type: in vivo, human
Conditions: male, human, plasma, oral, 384 mg, Day 7, plasma, healthy volunteers; read-out: Cmax Median
attribute.measured: Cmax (ng/mL)
// note: answer is a bare numeric in ng/mL

## Input Which Cmax is reported for this compound? Cc1ccc(C(=O)NNC(=O)c2c(C)cccc2Cl)cc1C#Cc1cnc2ccccc2c1
## Output 6500

---

Experiment: Plasma pharmacokinetics, Parkinson's disease patients, once daily for 14 days
Format: in vivo, human
Conditions: human, 24 mg, PD patients, read-out: AUC Over Dosing Interval Mean
Description: Of these, 44 subjects completed the study. An additional 10 subjects were enrolled in the open label part of the study, of these, one subject was discontinued due to an AE of vomiting. […] Vodobatinib levels in plasma and CSF were determined using a fully validated LC-MS/MS assay with lower limits of quantitation (LLOQ) of 2.5 ng/mL and 0.05 ng/mL, respectively. […]
attribute.measured: AUC (ng·h/mL)
Please give a number only; it is taken to be in ng·h/mL.

## Input # query: AUC of entry Cc1ccc(C(=O)NNC(=O)c2c(C)cccc2Cl)cc1C#Cc1cnc2ccccc2c1
## Output 5720

---

Experiment: Plasma pharmacokinetics, Parkinson's disease patients, once daily for 14 days
Assay type: in vivo, human
Settings: human, 6 mg, PD patients, read-out: AUC Over Dosing Interval Geo. Mean
attribute.measured: AUC (ng·h/mL)
Please respond with the number in ng·h/mL and leave the unit unwritten.

## Input I am curious: what AUC value has been reported for Cc1ccc(C(=O)NNC(=O)c2c(C)cccc2Cl)cc1C#Cc1cnc2ccccc2c1 ?
## Output 1090

---

Experiment: Plasma pharmacokinetics, 7 once-daily oral doses, healthy volunteers
Assay type: in vivo, human
Details: male, human, plasma, oral, 48 mg, Day 7, plasma, healthy volunteers; read-out: AUC0-24 Median
attribute.measured: AUC(0-t) (ng·h/mL)
Express it in ng·h/mL; write the number only.

## Input Record request: AUC(0-t) value, item Cc1ccc(C(=O)NNC(=O)c2c(C)cccc2Cl)cc1C#Cc1cnc2ccccc2c1
## Output 11000

---

Test: Plasma pharmacokinetics, 7 once-daily oral doses, healthy volunteers
Type: in vivo, human
Settings: male, human, plasma, oral, 384 mg, Day 1, plasma, healthy volunteers; read-out: Cmax Min, Max
attribute.measured: Cmax

## Input Item under review: Cc1ccc(C(=O)NNC(=O)c2c(C)cccc2Cl)cc1C#Cc1cnc2ccccc2c1 . Reported Cmax?
## Output 1490 to 13700 ng/mL

---

Test: Plasma pharmacokinetics, Parkinson's disease patients, once daily for 14 days
Type: in vivo, human
Conditions: human, 24 mg, PD patients, read-out: AUC Over Dosing Interval Min, Max
attribute.measured: AUC

## Input Which AUC value is on record for Cc1ccc(C(=O)NNC(=O)c2c(C)cccc2Cl)cc1C#Cc1cnc2ccccc2c1 ?
## Output 2460 to 8080 ng·h/mL

---

Assay: Plasma pharmacokinetics, Parkinson's disease patients, once daily for 14 days
Format: in vivo, human
Details: human, oral, 96 mg, Day 14, plasma, PD patients
attribute.measured: Cmax (ng/mL)
The figure you give is taken to be in ng/mL; do not add the unit.

## Input # get_value(readout='Cmax', item= Cc1ccc(C(=O)NNC(=O)c2c(C)cccc2Cl)cc1C#Cc1cnc2ccccc2c1 )
## Output 2800

---

Experiment: Plasma pharmacokinetics, Parkinson's disease patients, once daily for 14 days
Type: in vivo, human
Details: human, 96 mg, PD patients, read-out: AUC Over Dosing Interval Median
attribute.measured: AUC (ng·h/mL)
Use ng·h/mL as the unit, but write only the number.

## Input Look at this compound and give its reported AUC. Cc1ccc(C(=O)NNC(=O)c2c(C)cccc2Cl)cc1C#Cc1cnc2ccccc2c1
## Output 13900

---

Assay: Plasma pharmacokinetics, Parkinson's disease patients, once daily for 14 days
Assay type: in vivo, human
Details: human, 6 mg, PD patients, read-out: Half-Life Lambda Z Min, Max (converted)
attribute.measured: half-life (h)
Return type: number; implicit unit h.

## Input Which half-life value belongs to Cc1ccc(C(=O)NNC(=O)c2c(C)cccc2Cl)cc1C#Cc1cnc2ccccc2c1 ?
## Output 11.1

---

Assay: Plasma pharmacokinetics, 7 once-daily oral doses, healthy volunteers
Type: in vivo, human
Details: male, human, plasma, oral, 384 mg, Day 1, plasma, Healthy Subjects, Table 10; read-out: Tmax median
attribute.measured: Tmax (h)
Form entry: value (h) — number only.

## Input # lookup: Tmax of Cc1ccc(C(=O)NNC(=O)c2c(C)cccc2Cl)cc1C#Cc1cnc2ccccc2c1
## Output 4

---

Assay: Plasma pharmacokinetics, Parkinson's disease patients, once daily for 14 days
Type: in vivo, human
Conditions: human, oral, 24 mg, Day 14, plasma, PD patients
Protocol: Of these, 44 subjects completed the study. An additional 10 subjects were enrolled in the open label part of the study, of these, one subject was discontinued due to an AE of vomiting. […] Vodobatinib levels in plasma and CSF were determined using a fully validated LC-MS/MS assay with lower limits of quantitation (LLOQ) of 2.5 ng/mL and 0.05 ng/mL, respectively. […]
attribute.measured: Cmax

## Input Which Cmax reading was recorded for the compound Cc1ccc(C(=O)NNC(=O)c2c(C)cccc2Cl)cc1C#Cc1cnc2ccccc2c1 ?
## Output 715 ng/mL

---

Assay: Plasma pharmacokinetics, 7 once-daily oral doses, healthy volunteers
Format: in vivo, human
Conditions: male, human, plasma, oral, 384 mg, Day 7, plasma, healthy volunteers; read-out: Cmax AM
attribute.measured: Cmax (ng/mL)
Field format: number, assumed ng/mL, no unit text.

## Input Please look up its Cmax: Cc1ccc(C(=O)NNC(=O)c2c(C)cccc2Cl)cc1C#Cc1cnc2ccccc2c1
## Output 7880

---

Experiment: Plasma pharmacokinetics, Parkinson's disease patients, once daily for 14 days
Type: in vivo, human
Settings: human, oral, 48 mg, Day 1, plasma, PD patients
attribute.measured: Cmax (ng/mL)
Note: unit ng/mL is implicit; provide only the numeric part.

## Input Query (molecule): Cc1ccc(C(=O)NNC(=O)c2c(C)cccc2Cl)cc1C#Cc1cnc2ccccc2c1 ; field requested: Cmax
## Output 964

---

Assay: Plasma pharmacokinetics, 7 once-daily oral doses, healthy volunteers
Assay type: in vivo, human
Details: male, human, plasma, oral, 48 mg, Day 7, plasma, Healthy Subjects; read-out: AUC0-24 Mean
attribute.measured: AUC(0-t) (ng·h/mL)
Field format: number, assumed ng·h/mL, no unit text.

## Input Given Cc1ccc(C(=O)NNC(=O)c2c(C)cccc2Cl)cc1C#Cc1cnc2ccccc2c1 , state its recorded AUC(0-t).
## Output 12900

---

Assay: Plasma pharmacokinetics, Parkinson's disease patients, once daily for 14 days
Format: in vivo, human
Conditions: human, 6 mg, PD patients, read-out: Half-Life Lambda Z Mean (converted)
attribute.measured: half-life (h)
Value expressed in h; do not type the unit.

## Input Sample Cc1ccc(C(=O)NNC(=O)c2c(C)cccc2Cl)cc1C#Cc1cnc2ccccc2c1 — what was its half-life?
## Output 11.1

---

Assay: Plasma pharmacokinetics, 7 once-daily oral doses, healthy volunteers
Assay type: in vivo, human
Conditions: male, human, plasma, oral, 48 mg, Day 7, plasma, healthy volunteers; read-out: AUC0-24 Min, Max
attribute.measured: AUC(0-t)

## Input So what's the measured AUC(0-t) for this one? Cc1ccc(C(=O)NNC(=O)c2c(C)cccc2Cl)cc1C#Cc1cnc2ccccc2c1
## Output 2970 to 29000 ng·h/mL

---

Test: Plasma pharmacokinetics, 7 once-daily oral doses, healthy volunteers
Format: in vivo, human
Conditions: male, human, plasma, oral, 48 mg, Day 1, plasma, healthy volunteers; read-out: AUC0-24 GM
attribute.measured: AUC(0-t) (ng·h/mL)
Please reply with the bare figure in ng·h/mL and do not write the unit itself.

## Input Which value of AUC(0-t) has been reported for Cc1ccc(C(=O)NNC(=O)c2c(C)cccc2Cl)cc1C#Cc1cnc2ccccc2c1 in the records?
## Output 8690

---

Assay: Plasma pharmacokinetics, Parkinson's disease patients, once daily for 14 days
Assay type: in vivo, human
Details: human, 18 mg, PD patients, read-out: Half-Life Lambda Z Min, Max (converted)
attribute.measured: half-life (h)
API: value field is a number in h; no unit string.

## Input Give its half-life value. Item: Cc1ccc(C(=O)NNC(=O)c2c(C)cccc2Cl)cc1C#Cc1cnc2ccccc2c1
## Output 13.5
